Biological target: SLAMF9 protein (UniProt Q96A28 19-236, limits assumed)
Sequence (Q96A28 19-236 limits assumed): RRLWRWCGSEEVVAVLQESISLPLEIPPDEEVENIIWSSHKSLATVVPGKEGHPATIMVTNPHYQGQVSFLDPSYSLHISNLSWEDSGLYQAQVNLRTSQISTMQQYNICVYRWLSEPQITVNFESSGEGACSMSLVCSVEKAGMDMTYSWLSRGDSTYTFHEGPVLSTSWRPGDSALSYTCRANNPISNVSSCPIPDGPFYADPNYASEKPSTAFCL
Experiment: phage clone on SLAMF9 protein
Reported Metric: binding result

State its binding result for this binder: ET200-029 (scFv, screened as phage clone; entry is VL-linker-VH-His tag-HA tag) scFv: QAVLTQPPSVSVAPGKTARVTCGGNNIGSESVHWYQQKPGQAPVLVIYYDTDRPSGIPERFSGSHSGTTATLTISRVEAGDEADYYCQVWDSSRDHVVFGGGTKLTVLGSRGGGGSGGGGSGGGGSLEMAQVQLVQSGGGVVQPGRSLRLSCAASGFTFSSYAMHWVRQAPGKGLEWVAVISYDGSNKYYADSVKGLFTISRDNSKNTLYLQMNSLRAEDTAVYYCARSYFTSGFYDYWGQGTLVTVSSTSGQAGQHHHHHHGAYPYDVPDYAS no binding

Input ET200-009 (scFv, screened as phage clone; entry is VL-linker-VH-His tag-HA tag) scFv: QSVLTQPPSASGTPGQTVTISCSGSNSNIGSNYVYWYQQLPGTAPKLLIYRNNQRPSGVPDRFSGSKSGTSASLAISGLRSEDEADYYCAAWDDSLSAYVFGTGTKVTVLGSRGGGGSGGGGSGGGGSLEMAQVQLVQSGAEVKKPGASVKVSCKASGYTFTSYGISWVRQAPGQGLEWMGWISAYNGNTNYAQKLQGRVTMTTDTSTSTAYMELRSLRSDDTAVYYCARSSGNMVSWKDMWGQGTLVTVSSTSGQAGQHHHHHHGAYPYDVPDYAS , output reported binding result. no binding
